Property: Kd; scope: individual compounds
target_of_assay: PPARγ ligand binding domain (204–477) (Homo sapiens)
Report only the number, with the unit µM understood.

- compound: "CCCc1cc(C)c(CCCCCCCCCCC(=O)O)o1"
  Kd [µM]: 249

Then this compound:
Fill blank: measured Kd of the compound CC/C=C\C/C=C\C/C=C\C/C=C\C/C=C\CCCC(=O)O [EPA, Eicosapentaenoic acid, reference compound] is ____.
629

----------
target_of_assay: PPARγ ligand binding domain (204–477) (Homo sapiens, UniProt P37231)
Construct: GST (N, cleaved yes); made in house; host or cells: E. coli BL21(DE3)
Sequence (P37231 204-477 isoform P37231-2): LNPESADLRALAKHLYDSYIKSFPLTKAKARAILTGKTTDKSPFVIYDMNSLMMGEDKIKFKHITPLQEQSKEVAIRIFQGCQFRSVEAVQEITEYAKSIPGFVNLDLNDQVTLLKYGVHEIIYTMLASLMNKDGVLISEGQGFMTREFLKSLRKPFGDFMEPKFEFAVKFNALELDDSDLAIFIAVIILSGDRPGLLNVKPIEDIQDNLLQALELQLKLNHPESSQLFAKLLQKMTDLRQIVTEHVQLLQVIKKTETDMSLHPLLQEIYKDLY
procedure_details: Surface plasmon resonance (SPR) analysis of fatty acid binding to immobilized PPARγ LBD
condition_parameters: SPR steady-state fit; FUA: chip coupled with 12000RU
observation_type: log10 Rmax (log10 of the value in RU)
Use the decimal logarithm of Rmax (RU).

- molecule: "CC/C=C\\C/C=C\\C/C=C\\C/C=C\\C/C=C\\C/C=C\\CCC(=O)O [DHA, Docosahexaenoic acid, reference compound]"
  target_of_assay: "PPARγ ligand binding domain (204–477) (Homo sapiens, UniProt P37231)"
  log10 Rmax: 2.45
- molecule: "CCCCCc1cc(C)c(CCCCCCCCC(=O)O)o1"
  target_of_assay: "PPARγ ligand binding domain (204–477) (Homo sapiens, UniProt P37231)"
  log10 Rmax: 1.59

log10 Rmax lookup needed for "CC/C=C\C/C=C\C/C=C\C/C=C\C/C=C\CCCCCC(=O)O" , thanks.
3.34

Looking for the measured log10 Rmax of "CCCc1cc(C)c(CCCCCCCCCCC(=O)O)o1" , can you help?
2.66

Return reported log10 Rmax; argument: CCCCCCC1CC1CCCCCCCCCC(=O)O (stereo not shown)
1.52

Quick check: log10 Rmax of CC/C=C\C/C=C\C/C=C\C/C=C\C/C=C\CCCC(=O)O [EPA, Eicosapentaenoic acid, reference compound] ?
2.13

Value source: paper PMC7811525
